Molecular target: T1, native human glycophorin A protein (human, UniProt P02724 20-150)
T1 construct: mature; also called Hu-nat GPA
T1 sequence (looked up): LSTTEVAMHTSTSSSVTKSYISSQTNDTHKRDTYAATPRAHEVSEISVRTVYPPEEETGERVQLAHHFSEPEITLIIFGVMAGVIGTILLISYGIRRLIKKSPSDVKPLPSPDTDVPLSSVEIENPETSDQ
Assay: ELISA, Fab on coated native human GPA
readout.name: binding in ELISA relative to parental Fab

TPP-5699, Hu6C12-24 Fab variant VL: (S49A, P54Q) (Fab, V domains shown, Built on the parental Fab TPP-4935) VH: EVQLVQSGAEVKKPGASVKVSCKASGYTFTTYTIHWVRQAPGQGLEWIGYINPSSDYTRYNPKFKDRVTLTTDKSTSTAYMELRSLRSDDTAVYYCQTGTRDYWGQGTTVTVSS VL: DIQLTQSPSFLSASVGDRVTITCSAASSVSYIYWFQQKPGKAPKLLIYATSTLQSGVPSRFSGSGSGTEYTLTISSLQPEDFATYYCHQRNSFPFTFGQGTKLEIKR; 3.8 relative to parental Fab
TPP-5697, Hu6C12-24 Fab variant VH: (D66G, L70M, T72R) (Fab, V domains shown, Built on the parental Fab TPP-4935) VH: EVQLVQSGAEVKKPGASVKVSCKASGYTFTTYTIHWVRQAPGQGLEWIGYINPSSDYTRYNPKFKGRVTMTRDKSTSTAYMELRSLRSDDTAVYYCQTGTRDYWGQGTTVTVSS VL: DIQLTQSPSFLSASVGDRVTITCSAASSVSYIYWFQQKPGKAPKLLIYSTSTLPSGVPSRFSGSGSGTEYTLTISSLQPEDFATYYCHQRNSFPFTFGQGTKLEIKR; 1.2 relative to parental Fab

Now turn to the next binder.
# input Query: binding in ELISA relative to parental Fab; subject: TPP-5837, Hu6C12-24 Fab variant VL: (S24R, A26S, S49A, P54Q, F95Y); VH: (I48M, D66G) (Fab, V domains shown, Built on the parental Fab TPP-4935) VH: EVQLVQSGAEVKKPGASVKVSCKASGYTFTTYTIHWVRQAPGQGLEWMGYINPSSDYTRYNPKFKGRVTLTTDKSTSTAYMELRSLRSDDTAVYYCQTGTRDYWGQGTTVTVSS VL: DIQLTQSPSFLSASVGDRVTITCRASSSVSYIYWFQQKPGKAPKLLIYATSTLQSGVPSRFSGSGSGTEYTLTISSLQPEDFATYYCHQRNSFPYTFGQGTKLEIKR
# output 5.2 relative to parental Fab
